System: murine TTC39C mRNA
EXPERIMENTAL_PROTOCOL: Dose-dependent antisense inhibition of murine TTC39C in mouse primary hepatocytes
Assay type: cell-based
CONDITION_NOTES: 2000.0 nM, electroporation, ~16 h
Oligonucleotides are written 5' to 3', each unit as a sugar letter and its base; * is a phosphorothioate linkage, no mark a phosphodiester; rarer units and linkages stand in square brackets, end groups in braces. Plain capitals give the bases only. e = 2'-O-(2-methoxyethyl) (MOE); [5mC] = 5-methylcytosine; d = 2'-deoxy (DNA)
ENDPOINT_NAME: percent inhibition of TTC39C mRNA (%)
Response body: numeric value in %, unit text excluded.

SUBSTANCE: ISIS 474540: 5-10-5 MOE gapmer antisense oligonucleotide targeting murine TTC39C (antisense e[5mC]*e[5mC]*eA*e[5mC]*eT*dG*dG*dG*dA*dG*dT*dT*dT*dA*dT*e[5mC]*eA*e[5mC]*eT*eG)
READOUT_UNIT: %
percent inhibition of TTC39C mRNA: 81

SUBSTANCE: ISIS 474609: 5-10-5 MOE gapmer antisense oligonucleotide targeting murine TTC39C (antisense e[5mC]*eG*eT*eA*eG*dT*dA*dG*d[5mC]*dA*d[5mC]*dT*dG*dG*dG*eA*e[5mC]*e[5mC]*eA*e[5mC])
READOUT_UNIT: %
percent inhibition of TTC39C mRNA: 71

SUBSTANCE: ISIS 474516: 5-10-5 MOE gapmer antisense oligonucleotide targeting murine TTC39C (antisense eT*eT*eA*eG*eT*dG*dG*dA*d[5mC]*dT*dA*dT*dG*dA*dT*eT*eT*e[5mC]*eT*eG)
READOUT_UNIT: %
percent inhibition of TTC39C mRNA: 71

SUBSTANCE: ISIS 474666: 5-10-5 MOE gapmer antisense oligonucleotide targeting murine TTC39C (antisense e[5mC]*eA*eA*eT*e[5mC]*dA*dT*dG*d[5mC]*dT*dG*d[5mC]*dA*d[5mC]*d[5mC]*eA*eG*e[5mC]*e[5mC]*eT)
READOUT_UNIT: %
percent inhibition of TTC39C mRNA: 79

SUBSTANCE: ISIS 474600: 5-10-5 MOE gapmer antisense oligonucleotide targeting murine TTC39C (antisense e[5mC]*e[5mC]*eA*eA*eG*dG*dG*d[5mC]*dT*d[5mC]*dT*dT*d[5mC]*d[5mC]*dG*eT*e[5mC]*eA*eG*e[5mC])
READOUT_UNIT: %
percent inhibition of TTC39C mRNA: 66

SUBSTANCE: ISIS 474515: 5-10-5 MOE gapmer antisense oligonucleotide targeting murine TTC39C (antisense eT*e[5mC]*e[5mC]*e[5mC]*eT*dG*dA*dA*dG*d[5mC]*d[5mC]*dG*dT*dT*dG*eT*eT*eG*eA*eG)
READOUT_UNIT: %
percent inhibition of TTC39C mRNA: 79

Enquiry: Suppose we examine the substance ISIS 474532: 5-10-5 MOE gapmer antisense oligonucleotide targeting murine TTC39C (antisense eG*eT*eT*eG*eT*dG*d[5mC]*d[5mC]*d[5mC]*d[5mC]*dA*dT*d[5mC]*d[5mC]*dA*e[5mC]*eA*eT*e[5mC]*eA) ; what percent inhibition of TTC39C mRNA value has been reported?
Return: 84

Enquiry: Suppose we examine the substance ISIS 474610: 5-10-5 MOE gapmer antisense oligonucleotide targeting murine TTC39C (antisense eT*eT*eA*eA*eG*dA*dA*d[5mC]*dA*dA*dG*dT*dT*dG*dT*eG*e[5mC]*e[5mC]*e[5mC]*e[5mC]) ; what percent inhibition of TTC39C mRNA value has been reported?
Return: 38
